- protocol notes: The drug is tested on Z-002 corresponding to rabbit gut metagenome with ENA study accession number: PRJEB37062 and ENA sample accession number: ERS12561802 for biotransformation under anaerobic condition. The drug concentrations were measured over 9 timepoints collected between 0 and 24 hours of incubation by liquid-chromatography-coupled mass spectrometry (LC–MS); also: call rule not given here
- measurement context: 2 µM
outcome measure: Bacterial Biotransformation

CCC1(c2ccc(N)cc2)CCC(=O)NC1=O (stereo not drawn) [AMINOGLUTETHIMIDE]: Compound NOT metabolized
CN1CCC(=C2c3ccccc3CCc3cccnc32)CC1.O=C(O)/C=C\C(=O)O.O=C(O)/C=C\C(=O)O [AZATADINE MALEATE]: Compound NOT metabolized
CNCCC(Oc1ccc(C(F)(F)F)cc1)c1ccccc1 (stereo not drawn): Compound NOT metabolized

###

- measurement context: human gut metagenome, 24 h, 2 µM
outcome measure: Bacterial Biotransformation

CN1CCN(C(=O)O[C@H]2c3nccnc3C(=O)N2c2ccc(Cl)cn2)CC1 [ESZOPICLONE]: Compound NOT metabolized
COc1c(C)c2c(c(O)c1C/C=C(\C)CCC(=O)OCCN1CCOCC1)C(=O)OC2 [MYCOPHENOLATE MOFETIL]: Compound metabolized
CCCCc1nc(Cl)c(CO)n1Cc1ccc(-c2ccccc2-c2nn[nH]n2)cc1 [LOSARTAN]: Compound metabolized
CC[C@H](C)C(=O)O[C@H]1C[C@@H](C)C=C2C=C[C@H](C)[C@H](CC[C@@H]3C[C@@H](O)CC(=O)O3)[C@H]21 [LOVASTATIN]: Compound NOT metabolized
CC(C)NCC(O)c1ccc(NS(C)(=O)=O)cc1 (stereo not given) [SOTALOL]: Compound NOT metabolized
OC(Cn1cncn1)(Cn1cncn1)c1ccc(F)cc1F [FLUCONAZOLE]: Compound NOT metabolized
C[C@@H]1C[C@H]2[C@@H]3CCC4=CC(=O)C=C[C@]4(C)[C@@]3(F)[C@@H](O)C[C@]2(C)[C@@]1(O)C(=O)CO [DEXAMETHASONE]: Compound NOT metabolized
O=C(O)COCCN1CCN(C(c2ccccc2)c2ccc(Cl)cc2)CC1 (stereo not given) [CETIRIZINE]: Compound metabolized

Identify measured Bacterial Biotransformation associated with CC(C)c1c(C(=O)Nc2ccccc2)c(-c2ccccc2)c(-c2ccc(F)cc2)n1CC[C@@H](O)C[C@@H](O)CC(=O)O [ATORVASTATIN]
Compound NOT metabolized

Identify measured Bacterial Biotransformation associated with CN1C(=O)CCS(=O)(=O)C1c1ccc(Cl)cc1 (stereo not given) [CHLORMEZANONE]
Compound NOT metabolized

###

- protocol notes: The drug is tested on Z-014 corresponding to rat gut metagenome with ENA study accession number: PRJEB37062 and ENA sample accession number: ERS12561814 for biotransformation under anaerobic condition. The drug concentrations were measured over 9 timepoints collected between 0 and 24 hours of incubation by liquid-chromatography-coupled mass spectrometry (LC–MS)
- measurement context: 2 µM
Where a SMILES comes first, the peptide text is derived from it. [ ]: non-standard residue; d: D form. pGlu = O=C1CC[C@@H](C(=O)O)N1; Thz = O=C(O)[C@@H]1CSCN1
outcome measure: Bacterial Biotransformation

Worked cases, answers included:
CC[C@@H](CO)NC(=O)[C@@H]1C=C2c3cccc4c3c(cn4C)C[C@H]2N(C)C1.O=C(O)/C=C\C(=O)O [METHYSERGIDE MALEATE]: Compound NOT metabolized
CN1C(=O)CCS(=O)(=O)C1c1ccc(Cl)cc1 (stereo not given): Compound NOT metabolized
O=C1CC[C@@H](C(=O)N2CSC[C@H]2C(=O)O)N1 [PIDOTIMOD] ([pGlu]-[Thz]-OH): Compound NOT metabolized
Clc1ccc(Cn2c(CN3CCCC3)nc3ccccc32)cc1: Compound NOT metabolized
CC(=O)OCC(=O)[C@@]12N=C(C)O[C@@H]1C[C@H]1[C@@H]3CCC4=CC(=O)C=C[C@]4(C)[C@H]3[C@@H](O)C[C@@]12C: Compound metabolized

Identify measured Bacterial Biotransformation associated with `CN1CC(=O)N2[C@H](c3ccc4c(c3)OCO4)c3[nH]c4ccccc4c3C[C@@H]2C1=O`
Compound NOT metabolized

Identify measured Bacterial Biotransformation associated with CC(=O)CC(c1ccccc1)c1c(O)c2ccccc2oc1=O (stereo not given)
Compound metabolized

Identify measured Bacterial Biotransformation associated with `N#Cc1ccc(C(c2ccc(C#N)cc2)n2cncn2)cc1`
Compound NOT metabolized

Identify measured Bacterial Biotransformation associated with `Cc1ccc(-c2nc3ccc(C)cn3c2CC(=O)N(C)C)cc1`
Compound NOT metabolized

Identify measured Bacterial Biotransformation associated with O=C(NCc1ccccc1)OCCO [BURAMATE]
Compound NOT metabolized

Identify measured Bacterial Biotransformation associated with O=C(Nc1ccccc1)OCC(CN1CCCCC1)OC(=O)Nc1ccccc1 (stereo not given)
Compound NOT metabolized

Identify measured Bacterial Biotransformation associated with `OC(Cn1cncn1)(Cn1cncn1)c1ccc(F)cc1F`
Compound NOT metabolized

Identify measured Bacterial Biotransformation associated with CC(CN(C)C)CN1c2ccccc2CCc2ccccc21.O=C(O)/C=C\C(=O)O (stereo not given) [TRIMIPRAMINE MALEATE]
Compound NOT metabolized

###

- measurement context: human gut metagenome, 24 h, 2 µM
outcome measure: Bacterial Biotransformation

Worked cases, answers included:
CN1C(C(=O)Nc2ccccn2)=C(O)c2sccc2S1(=O)=O [TENOXICAM]: Compound NOT metabolized
CN1C[C@H](C(=O)N[C@]2(C)O[C@@]3(O)[C@@H]4CCCN4C(=O)[C@H](Cc4ccccc4)N3C2=O)C=C2c3cccc4[nH]cc(c34)C[C@H]21.CN1C[C@H](C(=O)N[C@]2(C)O[C@@]3(O)[C@@H]4CCCN4C(=O)[C@H](Cc4ccccc4)N3C2=O)C=C2c3cccc4[nH]cc(c34)C[C@H]21.O=C(O)C(O)C(O)C(=O)O [ERGOTAMINE TARTRATE]: Compound metabolized
COc1ccc2[nH]c([S+]([O-])Cc3ncc(C)c(OC)c3C)nc2n1 (stereo not given) [TENATOPRAZOLE]: Compound metabolized
CC(C)(Oc1ccc(CCNC(=O)c2ccc(Cl)cc2)cc1)C(=O)O [BEZAFIBRATE]: Compound NOT metabolized
CNS(=O)(=O)Cc1ccc2[nH]cc(CCN(C)C)c2c1.O=C(O)CCC(=O)O [SUMATRIPTAN SUCCINATE]: Compound NOT metabolized

Identify measured Bacterial Biotransformation associated with OCCN1CCN(CCCN2c3ccccc3Sc3ccc(C(F)(F)F)cc32)CC1 [FLUPHENAZINE]
Compound NOT metabolized

Identify measured Bacterial Biotransformation associated with Cc1nc(-c2ccc(OCC(C)C)c(C#N)c2)sc1C(=O)O [FEBUXOSTAT]
Compound metabolized

Identify measured Bacterial Biotransformation associated with Nc1ccc(/N=N/c2ccccc2)c(N)n1 [PHENAZOPYRIDINE]
Compound metabolized

Identify measured Bacterial Biotransformation associated with Clc1ccc(Cn2c(CN3CCCC3)nc3ccccc32)cc1 [CLEMIZOLE]
Compound NOT metabolized

Identify measured Bacterial Biotransformation associated with COC(=O)[C@H]1[C@H]2C[C@@H]3c4[nH]c5cc(OC)ccc5c4CCN3C[C@H]2C[C@@H](OC(=O)c2cc(OC)c(OC)c(OC)c2)[C@@H]1OC [RESERPINE]
Compound NOT metabolized

###

- protocol notes: The drug is tested on Z-024 corresponding to pig gut metagenome with ENA study accession number: PRJEB37062 and ENA sample accession number: ERS12561823 for biotransformation under anaerobic condition. The drug concentrations were measured over 9 timepoints collected between 0 and 24 hours of incubation by liquid-chromatography-coupled mass spectrometry (LC–MS)
- measurement context: 2 µM
outcome measure: Bacterial Biotransformation

Worked cases, answers included:
Br.CN(C)CCCC1(c2ccc(F)cc2)OCc2cc(C#N)ccc21 (stereo not drawn) [CITALOPRAM HYDROBROMIDE]: Compound NOT metabolized
COc1c2occc2cc2ccc(=O)oc12: Compound metabolized
CCc1nc(N)nc(N)c1-c1ccc(Cl)cc1: Compound metabolized
CC(=O)OCC(=O)[C@@]12N=C(C)O[C@@H]1C[C@H]1[C@@H]3CCC4=CC(=O)C=C[C@]4(C)[C@H]3[C@@H](O)C[C@@]12C: Compound metabolized

Identify measured Bacterial Biotransformation associated with `CN/C(=N/CCSCc1nc[nH]c1C)NC#N`
Compound NOT metabolized

Identify measured Bacterial Biotransformation associated with CCN(CC)CCOC(=O)C(Cc1cccc2ccccc12)CC1CCCO1.O=C(O)C(=O)O (stereo not drawn) [NAFRONYL OXALATE]
Compound metabolized

Identify measured Bacterial Biotransformation associated with `O=C(O)CCc1nc(-c2ccccc2)c(-c2ccccc2)o1`
Compound NOT metabolized

Identify measured Bacterial Biotransformation associated with CC(C)(C(=O)O)c1ccc(C(O)CCCN2CCC(C(O)(c3ccccc3)c3ccccc3)CC2)cc1 (stereo not drawn) [FEXOFENADINE]
Compound metabolized

Identify measured Bacterial Biotransformation associated with COCCc1ccc(OCC(O)CNC(C)C)cc1.COCCc1ccc(OCC(O)CNC(C)C)cc1.O=C(O)C(O)C(O)C(=O)O (stereo not drawn) [METOPROLOL TARTRATE]
Compound NOT metabolized

Identify measured Bacterial Biotransformation associated with O=C(NCc1ccccc1)OCCO [BURAMATE]
Compound NOT metabolized

Identify measured Bacterial Biotransformation associated with `COc1ccc2c(c1OC)C(=O)O[C@@H]2[C@H]1c2c(cc3c(c2OC)OCO3)CCN1C`
Compound metabolized

Identify measured Bacterial Biotransformation associated with `Cc1cc2c(cc1S(N)(=O)=O)S(=O)(=O)CCC2`
Compound NOT metabolized

Identify measured Bacterial Biotransformation associated with `Nc1nc2ccc(OC(F)(F)F)cc2s1`
Compound metabolized

Identify measured Bacterial Biotransformation associated with `CC(C)c1nc(CN(C)C(=O)N[C@H](C(=O)N[C@@H](Cc2ccccc2)C[C@H](O)[C@H](Cc2ccccc2)NC(=O)OCc2cncs2)C(C)C)cs1`
Compound NOT metabolized

Identify measured Bacterial Biotransformation associated with CC(=O)CC(c1ccccc1)c1c(O)c2ccccc2oc1=O (stereo not drawn)
Compound metabolized
